Every entry's value here was drawn from PubChem BioAssay AID624352.

- Assay remarks: HIF-2a reporter inhibitors, primary screen, luminescence, 786-0 RCC cells (AID 624352)
- Experimental context: 786-0 RCC cells HIF-2a reporter, luciferase luminescence, overnight; at 18.8 µM; hits give high values
Among all 360,000 compounds or so, about 2,600 (0.72%) were called active. For the sample, actives were picked, then their nearest neighbours and some compounds at random.
Recorded endpoint: inhibition (%)
Record the value in %, omitting the unit from your answer.

Field: example entries. Status: answers known.
{"columns": ["Compound", "inhibition [%]"],
 "data": [
  ["COC(=O)c1ccc(COC(=O)c2cnccn2)cc1", 9.27],
  ["Cc1c[n+]([O-])ccc1[N+](=O)[O-]", 3.58]
]}

Switching to the query record.
Lab note: measured inhibition of COCCN(C(=O)CCC(=O)Nc1ccccn1)C(C(=O)NCCC(C)C)c1ccc(OC)cc1 (configuration not stated) was 12.7

* * *

- Assay remarks: HIF-2a reporter inhibitors, primary screen, luminescence, 786-0 RCC cells (AID 624352)
- Experimental context: 786-0 RCC cells HIF-2a reporter, luciferase luminescence, overnight; at 18.8 µM
Out of some 360,000 compounds screened, about 2,600 (0.72%) were called active.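 Rule for the calls: active = inhibition of the luminescence signal of 40% or more relative to plate controls, in a single-dose primary screen at 18.75 µM; inactive = the rest.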 The entries come from a sample that favours actives as a whole.
In this exercise, the only acceptable responses are 1 (yes) for active, 0 (no) for inactive

Worked cases, answers included:
{"columns": ["Compound", "Classification"],
 "data": [
  ["COc1cc2c(cc1OC)C(Nc1ccc(S(N)(=O)=O)cc1)=NC(C)(C)C2", "0 (no)"],
  ["Cc1cccc(N2Cc3ccccc3C2=NC(=O)c2ccc(Cl)nc2)c1", "0 (no)"],
  ["Nc1c(-c2cccc(Cl)c2)cnn1-c1cccc([N+](=O)[O-])c1", "0 (no)"],
  ["COc1cc(C2C(C(=O)c3sc(C)nc3C)=C(O)C(=O)N2CCN(C)C)cc(OC)c1OC (stereo not given)", "0 (no)"],
  ["O=C(c1ccc2ccccc2n1)N1CCN(c2ccccc2Cl)CC1", "0 (no)"],
  ["C=CCn1c(C)cc(C2=NNC(=NCC)SC2)c1C", "1 (yes)"]
]}

Task: Would you mind telling me which call this test gave COc1ccc(-c2cnc3c(c2)C(=O)N([C@H](C)CO)C[C@@H](C)[C@H](CN(C)Cc2ccccc2)O3)cc1 ?
Result: 0 (no)

Task: Would you mind telling me which call this test gave O=[N+]([O-])c1ccc(CN2CC(N3CC=CC3)CS2(=O)=O)cc1 (stereo not given) ?
Result: 0 (no)

Task: Would you mind telling me which call this test gave O=C1/C(=C\c2ccc([N+](=O)[O-])cc2)CS(=O)(=O)C/C1=C/c1ccc([N+](=O)[O-])cc1 ?
Result: 1 (yes)

Task: Would you mind telling me which call this test gave CCOC(=O)C1(Cc2ccccc2C)CCCN(C(=O)c2ccc(COC)o2)C1 (stereo not given) ?
Result: 0 (no)

* * *

- Assay remarks: HIF-2a reporter inhibitors, primary screen, luminescence, 786-0 RCC cells (AID 624352)
- Experimental context: 786-0 RCC cells HIF-2a reporter, luciferase luminescence, overnight; at 18.8 µM; hits give high values
Among all 360,000 compounds or so, about 2,600 (0.72%) were called active. For the sample, actives were picked, then their nearest neighbours and some compounds at random.
Below, each entry is listed alongside its reported inhibition.
Record the value in %, omitting the unit from your answer.

Field: example entries. Status: answers known.
{"columns": ["Molecule", "Uom", "inhibition"],
 "data": [
  ["O=C(CCCn1c(=O)oc2ccccc21)Nc1cccnc1", "%", 2.59],
  ["O=C(CCS(=O)(=O)c1ccccc1)NC1CCCC1", "%", -146],
  ["CC(C)Cc1ccc(C(C)C(=N)N)cc1 (stereo not drawn)", "%", 25.6]
]}

Lab note: measured inhibition of O=C(Nc1ccc2c(c1)OCO2)C1CC1(Cl)Cl (stereo not drawn) was -154

Lab note: measured inhibition of CO/N=C/CC(=O)c1ccc(OC)cc1 was -11.6

Lab note: measured inhibition of O=C(Nc1ccc2c(c1)OCCO2)C1CCCC1 was 41.3

Lab note: measured inhibition of O=C(CN1C(=O)/C(=C\c2ccc(C(F)(F)F)cc2)Sc2ccccc21)NCc1ccco1 was -23.3

* * *

- Assay remarks: HIF-2a reporter inhibitors, primary screen, luminescence, 786-0 RCC cells (AID 624352)
- Experimental context: 786-0 RCC cells HIF-2a reporter, luciferase luminescence, overnight; at 18.8 µM
Out of some 360,000 compounds screened, about 2,600 (0.72%) were called active.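 The calls were made as follows: active = inhibition of the luminescence signal of 40% or more relative to plate controls, in a single-dose primary screen at 18.75 µM; inactive = the rest.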 Shown is part of a subset that was picked to be rich in actives.
In this exercise, the only acceptable responses are YES (active), NO (inactive)

Worked cases, answers included:
{"columns": ["Compound", "Classification"],
 "data": [
  ["FC(F)(F)c1nnc2c3ccccc3c(Cl)nn12", "NO"],
  ["Cn1c(=O)c2ccccc2n(CC(=O)Nc2ccc3c(c2)OCCO3)c1=O", "NO"],
  ["CCOc1ccc(S(=O)(=O)N2CCC(C(=O)NCc3ccccn3)CC2)cc1Cl", "NO"],
  ["CC(=O)Nc1ccc(NC(=O)[C@@H](NC(=O)c2cccc(C)c2)C(C)C)cc1", "NO"]
]}

Task: Would you mind telling me which call this test gave O=C1COc2ccc(C(=O)CSc3ccc(Br)cc3)cc2N1 ?
Result: NO

Task: Would you mind telling me which call this test gave CSc1ccccc1NC(=O)Cc1ccc(Br)cc1 ?
Result: NO

Task: Would you mind telling me which call this test gave Cc1c(CCC(=O)N[C@@H](CC(C)C)C(=O)O)c(=O)oc2c(C)c3oc4c(c3cc12)CCCC4 ?
Result: NO

Task: Would you mind telling me which call this test gave CC[C@@H](C)[C@H](NC(=O)CCc1c(C)c2cc3c4c(oc3c(C)c2oc1=O)CCCC4)C(=O)O ?
Result: YES

Task: Would you mind telling me which call this test gave C=CCN1C(=NC(=O)COc2ccccc2)SC2CS(=O)(=O)CC21 (stereo not given) ?
Result: NO

Task: Would you mind telling me which call this test gave COc1ccc(C)cc1-n1nnnc1SCC(=O)c1cc(C)n(Cc2ccco2)c1C ?
Result: NO

* * *

- Assay remarks: HIF-2a reporter inhibitors, primary screen, luminescence, 786-0 RCC cells (AID 624352)
- Experimental context: 786-0 RCC cells HIF-2a reporter, luciferase luminescence, overnight; at 18.8 µM; hits give high values
Out of some 360,000 compounds screened, about 2,600 (0.72%) were called active. For the sample, actives were picked, then their nearest neighbours and some compounds at random.
Recorded endpoint: inhibition (%)
Record the value in %, omitting the unit from your answer.

Field: example entries. Status: answers known.
{"columns": ["Compound", "Uom", "Quantitative result"],
 "data": [
  ["Cc1csc(NC(=O)CSc2ccc(-c3ccc(F)cc3)nn2)n1", "%", -4.55],
  ["COc1cc(/C=N/NC(=O)Nc2ccccc2)ccc1OCCOc1ccccc1C", "%", -9.55],
  ["O=C1CCC(=O)N(c2ccccc2)N1", "%", 9.24],
  ["O=C(CN1C(=O)NC2(CCOc3ccccc32)C1=O)NCc1ccc(F)cc1 (stereo unspecified)", "%", 7.05],
  ["Brc1ccc2c(c1)[C@H]1OCC[C@H]1[C@@H](c1cccs1)N2", "%", -2.71]
]}

Switching to the query record.
Lab note: measured inhibition of COc1cc(SC)ccc1C(=O)Nc1nc(C)cs1 was 77.6

* * *

Below, each entry is listed alongside its reported inhibition.
- Assay remarks: HIF-2a reporter inhibitors, primary screen, luminescence, 786-0 RCC cells (AID 624352)
- Experimental context: 786-0 RCC cells HIF-2a reporter, luciferase luminescence, overnight; at 18.8 µM; hits give high values
In all, about 360,000 compounds went through this assay and about 2,600 (0.72%) were called active. The sample as a whole holds a higher share of actives than the screen did.
Record the value in %, omitting the unit from your answer.

Field: example entries. Status: answers known.
{"columns": ["Compound", "inhibition [%]"],
 "data": [
  ["Cc1coc2cc3oc(=O)c(CCC(=O)O)c(C)c3cc12", 17],
  ["N#C/C(=C(\\O)C(F)(F)F)c1nnc2n1CCCCC2", 19.1],
  ["OCCN1CCN(C(=S)c2ccc(-c3ccccc3)cc2)CC1", 88.1],
  ["Cc1c(NC(=O)C(C)OC(=O)c2cc3c4ccccc4n(C)c3s2)c(=O)n(-c2ccccc2)n1C (configuration not stated)", 4.75],
  ["O=C(CCc1ccccc1)NNc1ccc(F)cc1", 5.59],
  ["CC(C)c1ccc2c(c1)c(SC(C)(C)C)c(CC(C)(C)C(=O)O)n2Cc1ccc(Cl)cc1", -26.8],
  ["Cc1cc(CNC(=O)C2CCC(=O)N(CCc3ccc(Cl)cc3)C2)no1 (configuration not stated)", -9.67],
  ["COc1cccc(-c2coc3cc4oc(=O)c(CC(=O)O)c(C)c4cc23)c1", -58]
]}

Lab note: measured inhibition of O=c1c2ccccc2cnn1Cc1n[nH]c(=S)n1-c1ccccc1F was 13.1

Lab note: measured inhibition of COc1cccc2c(C)c(C(=O)O)[nH]c12 was 47

Lab note: measured inhibition of COc1ccc(N2CCN(C(=O)COC(=O)c3cccc(S(=O)(=O)Nc4ccccc4OC)c3)CC2)cc1 was 12.6

Lab note: measured inhibition of Cc1c(CCC(=O)O)c(=O)oc2cc3occ(-c4ccccc4)c3cc12 was 63.2

Lab note: measured inhibition of C/C(N)=C(/C#N)C(=O)COC(=O)C1CCN(C(=O)c2ccc(Cl)cc2)CC1 was 8.64

Lab note: measured inhibition of S=C(c1ccc(-c2ccccc2)o1)N1CCCCC1 was -291

Lab note: measured inhibition of N#C/C(=C/c1cccc([N+](=O)[O-])c1)c1nnc2n1CCCCC2 was 40.7
